assay: inhibitors of TNFa-induced NFkB p65 translocation, primary screen, imaging, HUVEC, MLSMR starter and 10KST1 sets (AID 438); settings: HUVEC TNFa-induced p65 nuclear translocation; measured here: nuclei count (cytotoxicity indicator), at 2.08 µM;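 note: compound added about 3h40 before a 20 min TNFalpha stimulation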
Overview of recorded cell count for various compounds
ASSAY_ENDPOINT: cell count

COMPOUND: CC(C)OC(=O)C(C#N)c1nc2ccccc2nc1N1CCN(Cc2ccc3c(c2)OCO3)CC1 (stereo not drawn)
RECORDED_NUMBER: 351
//
COMPOUND: CCCC(=O)Nn1cnc2c(c1=O)C1(CCCC1)Cc1ccccc1-2
RECORDED_NUMBER: 558
//
COMPOUND: CCOC(=O)C1CCN(c2nc3ccccc3nc2C(C#N)C(=O)OCCOC)CC1 (stereo not drawn)
RECORDED_NUMBER: 436
//
COMPOUND: CCCCNC(=O)c1c(N)n(/N=C/c2cccnc2)c2nc3ccccc3nc12
RECORDED_NUMBER: 474
//
COMPOUND: CN1C2C=C3C(C#N)=C(N)C(C#N)(C#N)[C@@H](c4cccs4)C3C1CC2 (stereo partly drawn)
RECORDED_NUMBER: 494
//
COMPOUND: CC(C)c1nc(NCC2CCCO2)c(C#N)c2c1COC(C)(C)C2 (stereo not drawn)
RECORDED_NUMBER: 354
//
COMPOUND: COc1cc(-c2nn3c(COc4ccccc4)nnc3s2)cc(OC)c1OC
RECORDED_NUMBER: 497
//
COMPOUND: OCCN(CCO)c1ncnc2c1sc1nc(N3CCOCC3)c3c(c12)CCCC3
RECORDED_NUMBER: 597
//
COMPOUND: COc1nc(NS(=O)(=O)c2ccc(C)cc2)nc(C)c1Cl
RECORDED_NUMBER: 718
//
COMPOUND: Cc1cccc(OCC(=O)N2CCC(N3CCCCCC3)CC2)c1
RECORDED_NUMBER: 395
//
COMPOUND: COCCNc1oc(-c2ccc(Cl)cc2)nc1C#N
RECORDED_NUMBER: 465
//
COMPOUND: O=C(CN1C(=O)c2ccccc2S1(=O)=O)c1ccccc1
RECORDED_NUMBER: 567
//
COMPOUND: Cn1nnnc1-c1cc(Br)ccc1NC(=O)c1ccccc1
RECORDED_NUMBER: 397
//
COMPOUND: COc1ccc2[nH]c(C)c(C(=O)CN3CCN(C(=O)c4ccco4)CC3)c2c1
RECORDED_NUMBER: 567
//
COMPOUND: CCOC(=O)C1=C(CSc2nc(C)cc(C)c2C#N)OC(N)=C(C#N)C1c1cccs1 (stereo not drawn)
RECORDED_NUMBER: 502
//
COMPOUND: COc1cccc(Cn2c(OCC3CCCO3)nc3c2c(=O)n(C)c(=O)n3C)c1 (stereo not drawn)
RECORDED_NUMBER: 411
//
COMPOUND: CN1CCN(CCCCOc2ccc(F)cc2)CC1
RECORDED_NUMBER: 488
//
COMPOUND: CC1(C)CC(=O)C2=C(C1)N(Cc1ccco1)C(=O)C2(O)C(F)(F)F (stereo not drawn)
RECORDED_NUMBER: 502
//
COMPOUND: N/C(CCN1CCCCC1)=N/O
RECORDED_NUMBER: 582
//
COMPOUND: Cc1oncc1C(=O)Nc1ccc(C(F)(F)F)cc1
RECORDED_NUMBER: 554
//
COMPOUND: COc1cc(-c2nn3c(-c4cccnc4)nnc3s2)cc(OC)c1OC
RECORDED_NUMBER: 561
//
COMPOUND: CCOc1cccc(-c2nnc3sc(C4CCCCC4)nn23)c1
RECORDED_NUMBER: 683
//
COMPOUND: CCCCNC1=C(Br)C(=O)CC(C)(C)C1
RECORDED_NUMBER: 372

---

molecular target: Alpha-2C adrenergic receptor (Homo sapiens); experiment: modulators of alpha2C/GIRK thallium flux, primary screen, cell-based, HEK293 alpha2C/GIRK1/2 (AID 624); details: thallium flux BTC fluorescence, at 10 µM, actives lie on both sides;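 note: slope of fluorescence ratio to pre-addition baseline per second over 15 to 24 s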
Assign Satisfied to entries whose slope meets or exceeds 0.005; assign Not satisfied to the rest.

COMPOUND: COC(=O)c1ccc(Cn2cnc3c(sc4nc(N5CCOCC5)c5c(c43)CCCC5)c2=O)o1
ASSIGNED_CATEGORY: Satisfied
--
COMPOUND: Cc1cn([C@H]2C[C@H](N=[N+]=[N-])[C@@H](CO)O2)c(=O)[nH]c1=O
ASSIGNED_CATEGORY: Satisfied
--
COMPOUND: CCOc1cccc(-c2nn3c(-c4ccco4)nnc3s2)c1
ASSIGNED_CATEGORY: Not satisfied
--
COMPOUND: COc1ccc(/C(O)=C2/C(=O)C(=O)N(CCCN(C)C)C2c2ccccc2)cc1OC (stereo unspecified)
ASSIGNED_CATEGORY: Satisfied
--
COMPOUND: CCC[C@@H]1C[C@@H](C(=O)N[C@H]([C@@H](C)O)[C@H]2O[C@H](SC)[C@H](O)[C@@H](O)C2O)N(C)C1 (stereo partly specified)
ASSIGNED_CATEGORY: Satisfied
--
COMPOUND: CN(C)c1nc(N(C)C)nc(N(C)C)n1
ASSIGNED_CATEGORY: Not satisfied
--
COMPOUND: CCCNC(=O)NS(=O)(=O)c1ccc(Cl)cc1
ASSIGNED_CATEGORY: Satisfied
--
COMPOUND: COC(=O)c1ccccc1NC=C1C(=O)OC2(CCCCC2)OC1=O
ASSIGNED_CATEGORY: Satisfied
--
COMPOUND: OC(CCCN1CCC(O)(c2ccc(Cl)cc2)CC1)c1ccc(F)cc1 (stereo unspecified)
ASSIGNED_CATEGORY: Not satisfied
--
COMPOUND: Nc1ccc2cn[nH]c2c1
ASSIGNED_CATEGORY: Not satisfied
--
COMPOUND: CC1C/C=C/C=C/C=C/C=C/C(O[C@@H]2O[C@H](C)[C@@H](O)[C@H](N)[C@@H]2O)CC2OC(O)(CC(O)CC3OC3/C=C/C(=O)O1)CC(O)C2C(=O)O (stereo partly specified)
ASSIGNED_CATEGORY: Satisfied
--
COMPOUND: CCOC(=O)c1c(CN2CCCCC2)oc2ccc(OC)cc12
ASSIGNED_CATEGORY: Satisfied
--
COMPOUND: COCc1cc(C)nc(SCC(=O)Nc2ccc(C)c(C)c2)c1C#N
ASSIGNED_CATEGORY: Satisfied
--
COMPOUND: COC(=O)C1=C(C)OC(N)=C(C#N)C1c1ccc(OC)c(OC)c1OC (stereo unspecified)
ASSIGNED_CATEGORY: Not satisfied
--
COMPOUND: CC(=O)C1=C(O)C(=O)N(Cc2cccnc2)C1c1ccccc1Cl (stereo unspecified)
ASSIGNED_CATEGORY: Satisfied
--
COMPOUND: CCOc1cc(C2Nc3ccccc3C(=O)N2c2ccccc2OC)ccc1O (stereo unspecified)
ASSIGNED_CATEGORY: Not satisfied
--
COMPOUND: CCOC(=O)c1c(C)n(C)c2ccc(OC)c(NC(=O)CN3CCN(Cc4ccccc4)CC3)c12
ASSIGNED_CATEGORY: Satisfied
--
COMPOUND: Cc1cc(C)n(CC(=O)n2c3c(c4ccccc42)CCCC3)n1
ASSIGNED_CATEGORY: Satisfied
--
COMPOUND: COC(=O)c1ccc(Nc2cc(C)nc(-c3ccccc3O)n2)cc1
ASSIGNED_CATEGORY: Not satisfied

---

test: inhibitors of poly I:C-induced TLR3 signaling, primary screen, cell-based, poly I:C stimulus, luciferase, 10K MLSCN set (AID 602277); conditions: HEK293-TLR3 RL24 IRF3 luciferase reporter, at 10 µM, stronger effect = higher value
Entries annotated with measured inhibition

COMPOUND: CCOc1ccc2nc(SCC(=O)Nc3ncccn3)[nH]c2c1
inhibition, %: 99.1

COMPOUND: CCOc1nc(-c2ccncc2)nc2ccccc12
inhibition, %: 16.5

COMPOUND: Cc1nnc2n(-c3ccccc3)c(=O)c3c4c(sc3n12)CCCC4
inhibition, %: -35.5

COMPOUND: COc1ccc(-c2nnc3sc(-c4c(OC)cccc4OC)nn23)cc1
inhibition, %: 13

COMPOUND: CCCCCC1CC(CC#CCN2CCOCC2)C(=O)O1 (stereo unspecified)
inhibition, %: 10.9

COMPOUND: CCOC(=O)N1CCN(C(=O)c2cn(CC)c3cc(N4CCN(C)CC4)c(F)cc3c2=O)CC1
inhibition, %: 21.4

---

assay: inhibitors of mutant huntingtin aggregation, primary screen, imaging, exon1htt(103Q)mCFP cells, high-content imaging (AID 483); details: exon1htt(103Q)mCFP cell line, aggregate imaging, at 2 µM; measured here: cell count, toxicity;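 note: compound exposure lasted 3 days before fixation; percent of the per-plate median nuclei count of sample wells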

MOLECULE: c1ccc2c(c1)[nH]c1c(N3CCC4(CC3)OCCO4)ncnc12
UNIT_SYMBOL: %
nuclei count: 94.4

MOLECULE: CCOC(=O)N1CCN(c2ncnc3c2[nH]c2ccc(OC)cc23)CC1
UNIT_SYMBOL: %
nuclei count: 109

MOLECULE: CCN(CC)CCCC1(CN)OCCc2ccccc21 (stereo not given)
UNIT_SYMBOL: %
nuclei count: 86.5

MOLECULE: CCOC(=O)N1CCN(C(=O)c2cn(CC)c3cc(N4CCN(C)CC4)c(F)cc3c2=O)CC1
UNIT_SYMBOL: %
nuclei count: 96

MOLECULE: N#Cc1nc(-c2cccs2)oc1NCCc1ccccc1
UNIT_SYMBOL: %
nuclei count: 101

MOLECULE: CC(=O)Nc1nnc(S(N)(=O)=O)s1
UNIT_SYMBOL: %
nuclei count: 93.8

MOLECULE: CCCCCC#CCC#CCC#CCC#CCCCC(=O)O
UNIT_SYMBOL: %
nuclei count: 92.5

MOLECULE: Cc1nc(SC2C=CS(=O)(=O)C2)n[nH]1 (stereo not given)
UNIT_SYMBOL: %
nuclei count: 98.1

MOLECULE: Cc1cc(OCC(=O)Nc2ccc3oc(-c4ccncc4)nc3c2)ccc1Cl
UNIT_SYMBOL: %
nuclei count: 100

MOLECULE: CO[C@H]1C=CO[C@@]2(C)Oc3c(C)c(O)c4c(O)c(c(C=NN5CCN(C)CC5)c(O)c4c3C2=O)NC(=O)C(C)=CC=C[C@H](C)[C@H](O)[C@@H](C)[C@@H](O)[C@@H](C)[C@H](OC(C)=O)[C@@H]1C
UNIT_SYMBOL: %
nuclei count: 108

The reported measurements were obtained from PubChem BioAssay.
